biological target: NPFF1 receptor (Homo sapiens); assay: cAMP functional experiment, NPFF1 receptor (forskolin-induced cAMP accumulation)
Sequence (Q9GZQ6 whole entry): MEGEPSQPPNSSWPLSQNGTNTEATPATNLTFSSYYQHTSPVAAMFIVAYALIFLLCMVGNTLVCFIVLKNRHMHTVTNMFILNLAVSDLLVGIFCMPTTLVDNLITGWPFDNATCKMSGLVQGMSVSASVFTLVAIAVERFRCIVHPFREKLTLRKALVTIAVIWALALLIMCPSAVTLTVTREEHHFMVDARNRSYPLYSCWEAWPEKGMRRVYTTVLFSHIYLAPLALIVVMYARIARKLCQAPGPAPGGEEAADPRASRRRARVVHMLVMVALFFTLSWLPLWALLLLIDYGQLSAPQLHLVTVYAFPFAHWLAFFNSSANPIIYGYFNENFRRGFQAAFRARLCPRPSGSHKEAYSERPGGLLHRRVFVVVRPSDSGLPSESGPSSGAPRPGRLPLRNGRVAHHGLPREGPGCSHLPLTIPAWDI
Bridge positions count the residues as written; N and C are the ends. Square brackets hold non-standard residues; d marks the D form. Peptide text beside a SMILES is read from it. NMeF = CN[C@@H](Cc1ccccc1)C(=O)O; dOrn = NCCC[C@@H](N)C(=O)O; dDab = NCC[C@@H](N)C(=O)O; dDap = NC[C@@H](N)C(=O)O
# label = Fulfilled if IC50 < 100 nM else Not fulfilled

>>> discrete_label("CN1C(=O)CNC(=O)[C@H](NC(=O)[C@@H](N)Cc2ccc(O)cc2)CCNC(=O)C[C@@H](C(=O)N2CCC[C@H]2C(=O)N[C@@H](CCC(N)=O)C(=O)N[C@@H](CCCNC(=N)N)C(=O)N[C@@H](Cc2ccccc2)C(N)=O)NC(=O)[C@@H]1Cc1ccccc1 [Compound 9] (H-Y[dDab]G[NMeF]DPQRF-NH2; lactam 2-5)")
"Not fulfilled"
>>> discrete_label("CN1C(=O)CNC(=O)[C@H](NC(=O)[C@@H](N)Cc2ccc(O)cc2)CNC(=O)C[C@@H](C(=O)N2CCC[C@H]2C(=O)N[C@@H](CCC(N)=O)C(=O)N[C@@H](CCCNC(=N)N)C(=O)N[C@@H](Cc2ccccc2)C(N)=O)NC(=O)[C@@H]1Cc1ccccc1 [Compound 10] (H-Y[dDap]G[NMeF]DPQRF-NH2; lactam 2-5)")
"Fulfilled"
>>> discrete_label("CN1C(=O)CNC(=O)[C@H](NC(=O)[C@@H](N)Cc2ccc(O)cc2)CCCNC(=O)C[C@@H](C(=O)N2CCC[C@H]2C(=O)N[C@@H](CCC(N)=O)C(=O)N[C@@H](CCCNC(=N)N)C(=O)N[C@@H](Cc2ccccc2)C(N)=O)NC(=O)[C@@H]1Cc1ccccc1 [Compound 8] (H-Y[dOrn]G[NMeF]DPQRF-NH2; lactam 2-5)")
"Not fulfilled"
>>> discrete_label("CN1C(=O)CNC(=O)[C@H](NC(=O)[C@@H](N)Cc2ccc(O)cc2)CCCCNC(=O)C[C@@H](C(=O)N2CCC[C@H]2C(=O)N[C@@H](CCC(N)=O)C(=O)N[C@@H](CCCNC(=N)N)C(=O)N[C@@H](Cc2ccccc2)C(N)=O)NC(=O)[C@@H]1Cc1ccccc1 [Compound 1] (H-Y[dK]G[NMeF]DPQRF-NH2; lactam 2-5)")
"Not fulfilled"

As a next step, examine the compound that follows.
Below 100 nM on IC50? Entry CN1C(=O)CNC(=O)[C@@H](NC(=O)[C@@H](N)Cc2ccc(O)cc2)CCCCNC(=O)C[C@@H](C(=O)N2CCC[C@H]2C(=O)N[C@@H](CCC(N)=O)C(=O)N[C@@H](CCCNC(=N)N)C(=O)N[C@@H](Cc2ccccc2)C(N)=O)NC(=O)[C@@H]1Cc1ccccc1 [Compound 3] (H-YKG[NMeF]DPQRF-NH2; lactam 2-5) Fulfilled

---

biological target: Delta-opioid receptor (Homo sapiens); assay: cAMP functional experiment, Delta-opioid receptor (forskolin-induced cAMP accumulation)
Sequence (P41143 whole entry): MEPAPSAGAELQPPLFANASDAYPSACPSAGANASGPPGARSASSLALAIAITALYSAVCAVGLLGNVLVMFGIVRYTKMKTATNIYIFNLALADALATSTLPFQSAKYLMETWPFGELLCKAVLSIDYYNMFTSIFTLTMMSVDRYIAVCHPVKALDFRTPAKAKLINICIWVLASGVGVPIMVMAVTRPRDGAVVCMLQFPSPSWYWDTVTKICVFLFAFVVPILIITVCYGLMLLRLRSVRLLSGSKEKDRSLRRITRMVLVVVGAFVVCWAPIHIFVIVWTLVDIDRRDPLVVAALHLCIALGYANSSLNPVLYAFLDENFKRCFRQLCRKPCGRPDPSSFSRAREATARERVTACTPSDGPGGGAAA
Bridge positions count the residues as written; N and C are the ends. Square brackets hold non-standard residues; d marks the D form. Peptide text beside a SMILES is read from it. NMeF = CN[C@@H](Cc1ccccc1)C(=O)O; dOrn = NCCC[C@@H](N)C(=O)O; dDab = NCC[C@@H](N)C(=O)O; dDap = NC[C@@H](N)C(=O)O
Listing: pIC50 of selected molecules
Hey, just a heads up that pIC50 is the negative log base 10 of the concentration in molar.

Worked set:
>>> experimental_result("CN1C(=O)CNC(=O)[C@H](NC(=O)[C@@H](N)Cc2ccc(O)cc2)CCCCNC(=O)C[C@@H](C(=O)N2CCC[C@H]2C(=O)N[C@@H](CCC(N)=O)C(=O)N[C@@H](CCCNC(=N)N)C(=O)N[C@@H](Cc2ccccc2)C(N)=O)NC(=O)[C@@H]1Cc1ccccc1 [Compound 1] (H-Y[dK]G[NMeF]DPQRF-NH2; lactam 2-5)")
6.26
>>> experimental_result("CN1C(=O)CNC(=O)[C@H](NC(=O)[C@@H](N)Cc2ccc(O)cc2)CCCCNC(=O)C[C@@H](C(=O)NCC(=O)N[C@@H](CCC(N)=O)C(=O)N[C@@H](CCCNC(=N)N)C(=O)N[C@@H](Cc2ccccc2)C(N)=O)NC(=O)[C@@H]1Cc1ccccc1 [Compound 12] (H-Y[dK]G[NMeF]DGQRF-NH2; lactam 2-5)")
7.34
>>> experimental_result("CN1C(=O)CNC(=O)[C@H](NC(=O)[C@@H](N)Cc2ccc(O)cc2)CCCCNC(=O)C[C@H](C(=O)N2CCC[C@H]2C(=O)N[C@@H](CCC(N)=O)C(=O)N[C@@H](CCCNC(=N)N)C(=O)N[C@@H](Cc2ccccc2)C(N)=O)NC(=O)[C@@H]1Cc1ccccc1 [Compound 5] (H-Y[dK]G[NMeF][dD]PQRF-NH2; lactam 2-5)")
6.46

Need pIC50 of CN1C(=O)CNC(=O)[C@H](NC(=O)[C@@H](N)Cc2ccc(O)cc2)CC(=O)NCCCC[C@@H](C(=O)N2CCC[C@H]2C(=O)N[C@@H](CCC(N)=O)C(=O)N[C@@H](CCCNC(=N)N)C(=O)N[C@@H](Cc2ccccc2)C(N)=O)NC(=O)[C@@H]1Cc1ccccc1 [Compound 6] (H-Y[dD]G[NMeF]KPQRF-NH2; lactam 2-5) , thanks. 7.13

Need pIC50 of CN1C(=O)CNC(=O)[C@@H](NC(=O)[C@@H](N)Cc2ccc(O)cc2)CCCCNC(=O)C[C@@H](C(=O)N2CCC[C@H]2C(=O)N[C@@H](CCC(N)=O)C(=O)N[C@@H](CCCNC(=N)N)C(=O)N[C@@H](Cc2ccccc2)C(N)=O)NC(=O)[C@@H]1Cc1ccccc1 [Compound 3] (H-YKG[NMeF]DPQRF-NH2; lactam 2-5) , thanks. 7.55

Need pIC50 of CN1C(=O)CNC(=O)[C@H](NC(=O)[C@@H](N)Cc2ccc(O)cc2)CCCCNC(=O)CC[C@@H](C(=O)N2CCC[C@H]2C(=O)N[C@@H](CCC(N)=O)C(=O)N[C@@H](CCCNC(=N)N)C(=O)N[C@@H](Cc2ccccc2)C(N)=O)NC(=O)[C@@H]1Cc1ccccc1 [Compound 2] (H-Y[dK]G[NMeF]EPQRF-NH2; lactam 2-5) , thanks. 7.44

Need pIC50 of CN1C(=O)CNC(=O)[C@@H](NC(=O)[C@@H](N)Cc2ccc(O)cc2)CCCCNC(=O)C[C@H](C(=O)N2CCC[C@H]2C(=O)N[C@@H](CCC(N)=O)C(=O)N[C@@H](CCCNC(=N)N)C(=O)N[C@@H](Cc2ccccc2)C(N)=O)NC(=O)[C@@H]1Cc1ccccc1 [Compound 4] (H-YKG[NMeF][dD]PQRF-NH2; lactam 2-5) , thanks. 6.03

Need pIC50 of CN1C(=O)CNC(=O)[C@H](NC(=O)[C@@H](N)Cc2ccc(O)cc2)CCNC(=O)C[C@@H](C(=O)N2CCC[C@H]2C(=O)N[C@@H](CCC(N)=O)C(=O)N[C@@H](CCCNC(=N)N)C(=O)N[C@@H](Cc2ccccc2)C(N)=O)NC(=O)[C@@H]1Cc1ccccc1 [Compound 9] (H-Y[dDab]G[NMeF]DPQRF-NH2; lactam 2-5) , thanks. 7.02

Need pIC50 of CN1C(=O)CNC(=O)[C@H](NC(=O)[C@@H](N)Cc2ccc(O)cc2)CNC(=O)C[C@@H](C(=O)N2CCC[C@H]2C(=O)N[C@@H](CCC(N)=O)C(=O)N[C@@H](CCCNC(=N)N)C(=O)N[C@@H](Cc2ccccc2)C(N)=O)NC(=O)[C@@H]1Cc1ccccc1 [Compound 10] (H-Y[dDap]G[NMeF]DPQRF-NH2; lactam 2-5) , thanks. 6.43

Need pIC50 of CN1C(=O)CNC(=O)[C@H](NC(=O)[C@@H](N)Cc2ccc(O)cc2)CCCNC(=O)CC[C@@H](C(=O)N2CCC[C@H]2C(=O)N[C@@H](CCC(N)=O)C(=O)N[C@@H](CCCNC(=N)N)C(=O)N[C@@H](Cc2ccccc2)C(N)=O)NC(=O)[C@@H]1Cc1ccccc1 [Compound 11] (H-Y[dOrn]G[NMeF]EPQRF-NH2; lactam 2-5) , thanks. 5.81

Need pIC50 of CN1C(=O)CNC(=O)[C@H](NC(=O)[C@@H](N)Cc2ccc(O)cc2)CCCNC(=O)C[C@@H](C(=O)N2CCC[C@H]2C(=O)N[C@@H](CCC(N)=O)C(=O)N[C@@H](CCCNC(=N)N)C(=O)N[C@@H](Cc2ccccc2)C(N)=O)NC(=O)[C@@H]1Cc1ccccc1 [Compound 8] (H-Y[dOrn]G[NMeF]DPQRF-NH2; lactam 2-5) , thanks. 6.18

---

Listing: IC50 of selected molecules
molecular target: NPFF2 receptor (Homo sapiens); construct: expressed in transfected cells; host or cells: HEK293; experiment: cAMP functional experiment, NPFF2 receptor (forskolin-induced cAMP accumulation); format: cell-based
Sequence (Q9Y5X5 whole entry): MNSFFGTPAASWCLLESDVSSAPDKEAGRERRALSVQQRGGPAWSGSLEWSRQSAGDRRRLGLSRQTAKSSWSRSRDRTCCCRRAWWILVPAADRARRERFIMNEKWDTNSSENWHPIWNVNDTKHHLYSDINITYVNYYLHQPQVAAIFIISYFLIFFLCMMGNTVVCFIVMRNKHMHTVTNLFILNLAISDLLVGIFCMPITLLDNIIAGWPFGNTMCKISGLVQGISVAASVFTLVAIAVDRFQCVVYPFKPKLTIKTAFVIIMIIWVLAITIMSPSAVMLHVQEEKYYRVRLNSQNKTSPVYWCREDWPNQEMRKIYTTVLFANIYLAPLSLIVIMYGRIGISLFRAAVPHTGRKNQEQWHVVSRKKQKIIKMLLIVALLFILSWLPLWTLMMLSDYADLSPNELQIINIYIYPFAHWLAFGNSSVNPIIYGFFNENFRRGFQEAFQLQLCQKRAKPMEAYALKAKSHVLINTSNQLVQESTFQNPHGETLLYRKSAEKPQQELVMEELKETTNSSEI
Bridge positions count the residues as written; N and C are the ends. Square brackets hold non-standard residues; d marks the D form. Peptide text beside a SMILES is read from it. NMeF = CN[C@@H](Cc1ccccc1)C(=O)O; dDab = NCC[C@@H](N)C(=O)O
// note: answer is a bare numeric in nM

Worked set:
>>> experimental_result("CN1C(=O)CNC(=O)[C@H](NC(=O)[C@@H](N)Cc2ccc(O)cc2)CCCCNC(=O)CC[C@@H](C(=O)N2CCC[C@H]2C(=O)N[C@@H](CCC(N)=O)C(=O)N[C@@H](CCCNC(=N)N)C(=O)N[C@@H](Cc2ccccc2)C(N)=O)NC(=O)[C@@H]1Cc1ccccc1 [Compound 2] (H-Y[dK]G[NMeF]EPQRF-NH2; lactam 2-5)")
83.1
>>> experimental_result("CN1C(=O)CNC(=O)[C@H](NC(=O)[C@@H](N)Cc2ccc(O)cc2)CC(=O)NCCCC[C@@H](C(=O)N2CCC[C@H]2C(=O)N[C@@H](CCC(N)=O)C(=O)N[C@@H](CCCNC(=N)N)C(=O)N[C@@H](Cc2ccccc2)C(N)=O)NC(=O)[C@@H]1Cc1ccccc1 [Compound 6] (H-Y[dD]G[NMeF]KPQRF-NH2; lactam 2-5)")
303

Shift focus to the following entry.
Need IC50 of CN1C(=O)CNC(=O)[C@H](NC(=O)[C@@H](N)Cc2ccc(O)cc2)CCNC(=O)C[C@@H](C(=O)N2CCC[C@H]2C(=O)N[C@@H](CCC(N)=O)C(=O)N[C@@H](CCCNC(=N)N)C(=O)N[C@@H](Cc2ccccc2)C(N)=O)NC(=O)[C@@H]1Cc1ccccc1 [Compound 9] (H-Y[dDab]G[NMeF]DPQRF-NH2; lactam 2-5) , thanks. 265

These measurements were taken from patent US20240166690A1.
